- assayed target: T1, human GIP receptor (human) (UniProt P48546)
- T1 sequence (looked up): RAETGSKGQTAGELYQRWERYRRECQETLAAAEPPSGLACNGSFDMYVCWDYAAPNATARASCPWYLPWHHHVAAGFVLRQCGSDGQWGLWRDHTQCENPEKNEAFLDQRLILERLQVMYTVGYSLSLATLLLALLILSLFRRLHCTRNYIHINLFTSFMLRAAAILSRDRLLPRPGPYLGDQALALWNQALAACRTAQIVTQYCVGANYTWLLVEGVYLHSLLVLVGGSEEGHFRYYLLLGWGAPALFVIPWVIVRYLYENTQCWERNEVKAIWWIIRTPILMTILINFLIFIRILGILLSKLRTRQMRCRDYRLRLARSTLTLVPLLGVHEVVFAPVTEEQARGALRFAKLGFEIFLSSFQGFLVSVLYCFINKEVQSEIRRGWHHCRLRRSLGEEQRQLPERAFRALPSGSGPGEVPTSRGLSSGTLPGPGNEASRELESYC
- assay remarks: cell-based or functional assay
Assign labels as follows, please: yes (1) for cAMP Rel EC50, nM (1% HSA) below 10 nM; no (0) for cAMP Rel EC50, nM (1% HSA) equal to or exceeding 10 nM.

These solved cases illustrate the format of a correct answer.
| binder | class name |
| --- | --- |
| YXQGTFTSDFSXXLDKKAQXAFIEYLLEXGPSSGXPPPSGS (acylated; synthetic construct; SITE 2: note = 2-Aminoisobutyric Acid; SITE 12: note = L-ornithine; SITE 13: note = alpha-methyl-leucine; SITE 17: note = Lysine is chemically modified through conjugation of the epsilon-amino group of the Lysine side chain with (2-[2-(2-Amino-ethoxy)-ethoxy]-acetyl)-(gamma-Glu)) [Example 239] | no (0) |
| YXQGTFTSDXSQXLDKKAQXAFIEXLIEGGPSSGAPPPSGSEE (non-natural residues; Lys acylated C18 diacid; C-terminal amide; synthetic construct; SITE 2: note = 2-Aminoisobutyric Acid; SITE 10: note = 3-(4-Pyridyl)-L-alanine; SITE 13: note = alpha-methyl-leucine; SITE 17: note = Lysine is chemically modified through conjugation of the epsilon-amino group of the Lysine side chain with (gamma-Glu)2-CO-(CH2)16-CO2H; SITE 20:) [Example 957] | no (0) |
| YXQGTFTSDFSRXLDKKAQXAFIEYLIEXGESSGAPPPSGE (acylated lipid side chain; synthetic construct; SITE 2: note = 2-Aminoisobutyric Acid; SITE 13: note = alpha-methyl-leucine; SITE 17: note = Lysine is chemically modified through conjugation of the epsilon-amino group of the Lysine side chain with (2-[2-(2-Amino-ethoxy)-ethoxy]-acetyl)-(gamma-Glu)-CO-(CH2) 16-CO2H; SITE 20: n) [Example 231] | no (0) |
| YXQGTFTSDFSQXLDKKAQXAFIEYLLEXGPSSGAPPPSGS (synthetic construct; SITE 2: note = 2-Aminoisobutyric Acid; SITE 13: note = alpha-methyl-leucine; SITE 17: note = Lysine is chemically modified through conjugation of the epsilon-amino group of the Lysine side chain with (2-[2-(2-Amino-ethoxy)-ethoxy]-acetyl)-(gamma-Glu)-CO-(CH2) 16-CO2H; SITE 20: n) [Example 151] | no (0) |

Switching to the query record.
Determine if YXQGTFTSDFSXXLDKKAQXAFIEYLLEGGPSSGAPPPGGT (acylated; synthetic construct; SITE 2: note = 2-Aminoisobutyric Acid; SITE 12: note = L-ornithine; SITE 13: note = alpha-methyl-leucine; SITE 17: note = Lysine is chemically modified through conjugation of the epsilon-amino group of the Lysine side chain with (2-[2-(2-Amino-ethoxy)-ethoxy]-acetyl)-(gamma-Glu)) [Example 197] shows cAMP Rel EC50, nM (1% HSA) strictly lower than 10 nM.
no (0)
